system: adult human dermal fibroblasts (HDF); assay: subG1 (hypodiploid) fraction by flow cytometry, HDFs; type: cell-based; details: 25 μM
TEST READOUT: Peak subG1 percent over 48 h (%)
Respond with the bare value in %.

Could you tell me which Peak subG1 percent over 48 h is on file for `CN(C)CC(=O)Nc1ccc2[nH]c(=O)c3ccccc3c2c1` ?
28.2

Could you tell me which Peak subG1 percent over 48 h is on file for `COC1=CC(=O)C[C@@H](C)[C@]12Oc1c(Cl)c(OC)cc(OC)c1C2=O` ?
32.9

Could you tell me which Peak subG1 percent over 48 h is on file for `COc1ccc2c(c1OC)C(=O)O[C@@H]2[C@H]1c2c(c(Br)c3c(c2OC)OCO3)CCN1C` ?
20.4

Could you tell me which Peak subG1 percent over 48 h is on file for `COc1ccc2c(c1OC)C(=O)O[C@@H]2[C@H]1c2c(cc3c(c2OC)OCO3)CCN1C` ?
11.2

====

test system: mammary fibrocystic (MCF10A) cells; assay: subG1 (hypodiploid) fraction by flow cytometry, MCF10A cells; assay type: cell-based; conditions: MCF10A, 25 μM
Here, each record is paired with measured Peak subG1 percent over 48 h data.
Respond with the bare value in %.

# example entries with known answers
INSERT INTO results (compound, system_under_test, test_readout, uom, observed_result) VALUES
  ('COc1ccc2c(c1OC)C(=O)O[C@@H]2[C@H]1c2c(cc3c(c2OC)OCO3)CCN1C [Nos, noscapine]', 'mammary fibrocystic (MCF10A) cells', 'Peak subG1 percent over 48 h', '%', 4.2),
  ('COc1ccc2c(c1OC)C(=O)O[C@@H]2[C@H]1c2c(c(Br)c3c(c2OC)OCO3)CCN1C [BN, 9-bromonoscapine]', 'mammary fibrocystic (MCF10A) cells', 'Peak subG1 percent over 48 h', '%', 3.0),
  ('COC1=CC(=O)C[C@@H](C)[C@]12Oc1c(Cl)c(OC)cc(OC)c1C2=O [GF, griseofulvin]', 'mammary fibrocystic (MCF10A) cells', 'Peak subG1 percent over 48 h', '%', 22.7);

We next turn to a different compound, shown below.
Could you tell me which Peak subG1 percent over 48 h is on file for CN(C)CC(=O)Nc1ccc2[nH]c(=O)c3ccccc3c2c1 [PJ, PJ-34] ?
9.1

====

test system: PC3 cells; test: subG1 (hypodiploid) fraction by flow cytometry, PC3 cells; format: cell-based; conditions: 25 μM
TEST READOUT: Peak subG1 percent over 48 h
Put down the number, then write its unit next to it.

# example entries with known answers
INSERT INTO results (molecule, observed_result) VALUES
  ('COc1ccc2c(c1OC)C(=O)O[C@@H]2[C@H]1c2c(cc3c(c2OC)OCO3)CCN1C [Nos, noscapine]', '32.7%'),
  ('CN(C)CC(=O)Nc1ccc2[nH]c(=O)c3ccccc3c2c1 [PJ, PJ-34]', '48.4%'),
  ('COC1=CC(=O)C[C@@H](C)[C@]12Oc1c(Cl)c(OC)cc(OC)c1C2=O [GF, griseofulvin]', '33.7%');

Could you tell me which Peak subG1 percent over 48 h is on file for COc1ccc2c(c1OC)C(=O)O[C@@H]2[C@H]1c2c(c(Br)c3c(c2OC)OCO3)CCN1C [BN, 9-bromonoscapine] ?
42.8%
